# System: Japanese medaka Peroxisome Proliferator-activated Receptor alpha (PPARa), gene 100304458
# protocol text: ATG_jmPPARa_EcoTox2: Attagene TRANS-FACTORIAL EcoTox-2 HepG2 Assay for Japanese medaka Peroxisome Proliferator-activated Receptor alpha (PPARa)
Inconclusive results are not listed. The source made the active and inactive calls. The calls were made as follows: active = hit-call score of the fitted dose curve at least 0.9, where 1 is the maximum; inconclusive = response in the unintended direction; inactive = score below 0.9.
Your reply should match one of these outcome classes. active, inactive

Worked examples follow.
>  <substance smiles>
[Cl][Sn]([c]1ccccc1)([c]1ccccc1)[c]1ccccc1

>  <answer label>
active

$$$$
>  <substance smiles>
O=C(O)C(F)(F)C(F)(F)C(F)(F)C(F)(F)C(F)(F)C(F)(F)C(F)(F)F

>  <answer label>
active

$$$$
>  <substance smiles>
CCCCOCN(C(=O)CCl)c1c(CC)cccc1CC

>  <answer label>
active

$$$$

// next entry
### Prompt Could you check what this test reported for `O=S(=O)(O)C(F)(F)C(F)(F)C(F)(F)C(F)(F)C(F)(F)C(F)(F)F` ?
### Response inactive

The origin of these recorded values is PubChem BioAssay AID2284348.
